Taken from ChEMBL document CHEMBL2331219.

The compounds listed here are annotated with their viability at 24 h, 62.5 ug/mL.
Assay: Cytotoxicity against mouse NIH/3T3 cells assessed as cell viability at 62.5 ug/mL after 24 hrs by MTT assay relative to control
Type: cell-based, NIH3T3
Details: read-out: Activity
Numbers only here, please. The scale is %.

Below, each entry is followed by its recorded viability at 24 h, 62.5 ug/mL result.
In: Fill in the blank: the reported viability at 24 h, 62.5 ug/mL of "C/C(=N\Nc1nc([C@H](C)N)cs1)c1ccc2c(c1)CCC2" is ____.
Out: 32.4

In: Would you kindly share the measured viability at 24 h, 62.5 ug/mL for "COc1ccc(O)c(-c2csc(N/N=C/c3c[nH]c4ccccc34)n2)c1" ?
Out: 50.2

In: GET /values?readout=viability at 24 h, 62.5 ug/mL&item= "COc1ccc(O)c(-c2csc(N/N=C/c3ccc4ccccc4c3)n2)c1"
Out: 52.7

Kindly consider the entry below.
In: Need viability at 24 h, 62.5 ug/mL of "COc1ccc(O)c(-c2csc(N/N=C/c3c(-c4ccccc4)nc4scc(C)n34)n2)c1" , thanks.
Out: 59.5
